MIC: recorded values
System: S. enterica ATCC14028
assay_explanation: MIC, broth microdilution
Type: cell-based
experimental_context: Salmonella enterica; S. enterica ATCC14028; read-out: Minimum inhibitory concentration S.e.^g
result_type: MIC

[[record]]
compound = "C=C[C@]1(C)C[C@@H](OC(=O)CSc2nc3cc[n+](Cc4cc(F)c(F)cc4F)cc3[nH]2)[C@]2(C)[C@H](C)CC[C@]3(CCC(=O)[C@H]32)[C@@H](C)[C@@H]1O [Compound g]"
subject_of_test = "S. enterica ATCC14028"
assay_result = "128 µg/mL"

[[record]]
compound = "C=C[C@]1(C)C[C@@H](OC(=O)CSc2nc3cc[n+](Cc4ccc(Cl)cc4)cc3[nH]2)[C@]2(C)[C@H](C)CC[C@]3(CCC(=O)[C@H]32)[C@@H](C)[C@@H]1O [Compound e]"
subject_of_test = "S. enterica ATCC14028"
assay_result = "32 µg/mL"

[[record]]
compound = "C=C[C@]1(C)C[C@@H](OC(=O)CSc2nc3cc[n+](Cc4ccc(OC)cc4)cc3[nH]2)[C@]2(C)[C@H](C)CC[C@]3(CCC(=O)[C@H]32)[C@@H](C)[C@@H]1O [Compound d]"
subject_of_test = "S. enterica ATCC14028"
assay_result = "16 µg/mL"


====

Test system: A549 Cells
assay_explanation: Cytotoxicity, Cell Counting Kit-8
Assay type: cell-based
experimental_context: CCK-8, 24 hours incubation; read-out: CC50 A549 Cells
result_type: CC50

[[record]]
structure_as_smiles = "C=C[C@]1(C)C[C@@H](OC(=O)CSc2nc3cc[n+](Cc4ccc(C#N)cc4)cc3[nH]2)[C@]2(C)[C@H](C)CC[C@]3(CCC(=O)[C@H]32)[C@@H](C)[C@@H]1O"
assay_result = "> 100 µM"

[[record]]
structure_as_smiles = "C=C[C@]1(C)C[C@@H](OC(=O)CSc2nc3cc[n+](Cc4ccc(C)cc4)cc3[nH]2)[C@]2(C)[C@H](C)CC[C@]3(CCC(=O)[C@H]32)[C@@H](C)[C@@H]1O"
assay_result = "> 100 µM"


====

CC50: recorded values
Test system: HepG2 Cells
assay_explanation: Cytotoxicity, Cell Counting Kit-8
Assay type: cell-based
experimental_context: human, 24 h
From the text: Cell Counting Kit-8 was used to evaluate the cytotoxicity of the compounds. […] (7) Absorbance determination: Use a full-wavelength scanning multifunctional reader, place the 96-well plate in the instrument, oscillate to mix to make the color evenly distributed, and measure the absorbance value at 490 nm. (8) Data analysis: Based on the measured absorbance values, the cell survival rate at different concentrations can be calculated. […]
result_type: CC50 (µM)

[[record]]
molecule = "C=C[C@]1(C)C[C@@H](OC(=O)CS[C@@H]2C[C@H]3CC[C@@H](C2)N3C)[C@]2(C)[C@H](C)CC[C@]3(CCC(=O)[C@H]32)[C@@H](C)[C@@H]1O [Retapamulin, reference compound]"
result_type = "CC50"
assay_result = 61.1

[[record]]
molecule = "C=C[C@]1(C)C[C@@H](OC(=O)CSC(C)(C)CNC(=O)[C@H](N)C(C)C)[C@]2(C)[C@H](C)CC[C@]3(CCC(=O)[C@H]32)[C@@H](C)[C@@H]1O [Valnemulin, reference compound]"
result_type = "CC50"
assay_result = 77.3

